- experimental system: FAAH (Mus musculus)
- Sequence (O08914 1-579): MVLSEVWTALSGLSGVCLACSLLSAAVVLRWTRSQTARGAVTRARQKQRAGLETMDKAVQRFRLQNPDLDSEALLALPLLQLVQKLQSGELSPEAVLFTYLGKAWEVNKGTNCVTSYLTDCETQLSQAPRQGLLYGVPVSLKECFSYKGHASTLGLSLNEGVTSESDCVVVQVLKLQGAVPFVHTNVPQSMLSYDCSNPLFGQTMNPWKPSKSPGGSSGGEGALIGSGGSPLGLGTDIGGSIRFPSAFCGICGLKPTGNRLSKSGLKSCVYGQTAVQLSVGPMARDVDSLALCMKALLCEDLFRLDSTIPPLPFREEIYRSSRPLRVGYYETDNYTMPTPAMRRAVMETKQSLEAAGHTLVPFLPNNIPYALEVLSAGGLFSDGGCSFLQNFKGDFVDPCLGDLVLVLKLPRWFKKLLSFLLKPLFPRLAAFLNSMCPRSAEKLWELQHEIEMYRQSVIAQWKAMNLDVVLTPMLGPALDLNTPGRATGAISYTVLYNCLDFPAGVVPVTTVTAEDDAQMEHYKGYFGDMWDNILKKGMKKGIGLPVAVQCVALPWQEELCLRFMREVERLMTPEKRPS
- assay explanation: In vitro competitive activity-based protein profiling (FP-Rh), mouse FAAH
- Assay type: biochemical
- Design: from tissue; host or cells: mouse brain membrane fraction
- condition label: Table 1, mouse proteome, 30 min preincubation at 37° C.
observed property: IC50

Example compounds with recorded IC50:
1) CC(C)(C)OC(=O)N1CCN(C(=O)ON2C(=O)CCC2=O)CC1: > 10000 nM
2) CCCN(Cc1ccc(N2CCCCC2)cc1)C(=O)ON1C(=O)CCC1=O: > 10000 nM
3) O=C(ON1C(=O)CC(c2ccccc2)C1=O)N1CCN(C(c2ccc(Cl)cc2)c2ccc(Cl)cc2)CC1 (stereo not shown): > 10000 nM
4) O=C(ON1C(=O)CCC1=O)N1CCN(Cc2cccc(Oc3ccccc3)c2)CC1: 1000 to 10000 nM
5) COc1ccc(N2CCN(C(=O)ON3C(=O)CC(C)(C)C3=O)CC2)cc1: > 10000 nM

Qu. State its IC50: COc1ccc(N2CCN(C(=O)ON3C(=O)NC(C(C)C)C3=O)CC2)cc1 (stereo not shown)
Ans. 1000 to 10000 nM

Qu. State its IC50: O=C(NC1CCCc2ccccc21)ON1C(=O)CCC1=O (stereo not shown)
Ans. > 10000 nM

Qu. State its IC50: O=C1CCC(=O)N1OC(=O)N1CCCCC1C(F)(F)F (stereo not shown)
Ans. > 10000 nM

Qu. State its IC50: O=C(ON1C(=O)CCC1=O)N1CCN(C(c2ccc(Br)cc2)c2ccc(Br)cc2)CC1
Ans. > 10000 nM

Qu. State its IC50: O=C(ON1C(=O)CCC1=O)N1CCC(C(O)(c2ccc3c(c2)OCO3)c2ccc3c(c2)OCO3)CC1
Ans. > 10000 nM

Qu. State its IC50: O=C1CCC(=O)N1OC(=O)N1CCCCC1c1ccccc1 (stereo not shown)
Ans. > 10000 nM

Qu. State its IC50: Cc1cc(N2CCN(C(=O)ON3C(=O)CCC3=O)CC2)c2ccccc2n1
Ans. > 10000 nM

Qu. State its IC50: O=C(C1CCCCN1C(=O)ON1C(=O)CCC1=O)N1CCOCC1 (stereo not shown)
Ans. > 10000 nM
